Data provenance is PubChem BioAssay (NCI).

Below, each entry is listed alongside its reported TGI.
System: OVCAR-4 ovarian
Assay: NCI tumour cell line growth inhibition, 48 h

[
  {
    "compound": "O=C(OCc1ccc2cccc(O)c2n1)N1CCN(C(=O)c2cc3cc(F)ccc3[nH]2)CC1",
    "TGI": "2.74 µM"
  },
  {
    "compound": "O=[N+]([O-])c1ccc(Cl)c(C=NC23CC4CC(CC(C4)C2)C3)c1",
    "TGI": "> 10 µM"
  },
  {
    "compound": "COc1cc(/C=C2\\CCC(C)C3C2=NN(C(C)=O)C3c2cc(OC)c(OC)c(OC)c2)cc(OC)c1OC (stereo not drawn)",
    "TGI": "> 100 µM"
  },
  {
    "compound": "O=C(c1ccc(O)cc1)C1c2c3c(cc(O)c2C(c2ccc(O)cc2)C1c1cc(O)cc(O)c1)OC(c1ccc(O)cc1)C3c1cc2c(cc1O)OC(c1ccc(O)cc1)C2c1cc(O)cc(O)c1 (stereo not drawn)",
    "TGI": "> 12.5 µM"
  },
  {
    "compound": "C=C(CCCCC)CN1CCCC1[C@@](C)(O)CC(=O)OCC (stereo partly drawn)",
    "TGI": "> 100 µM"
  },
  {
    "compound": "CC(=O)NC1C(OCc2ccccc2)OC(CO)C(O)C1OC(C)C(=O)NC(C)C(=O)NC(CCC(=O)NCCCNc1c2ccccc2nc2cccc([N+](=O)[O-])c12)C(N)=O (stereo not drawn)",
    "TGI": "> 100 µM"
  },
  {
    "compound": "O=C1OC[C@@H]2Cc3cc4c(cc3[C@H](c3ccc5c(c3)OCO5)[C@@H]12)OCO4",
    "TGI": "> 25 µM"
  },
  {
    "compound": "O=C(O)/C=N\\Nc1nc2ccccc2[nH]1",
    "TGI": "> 100 µM"
  },
  {
    "compound": "Nc1nc(Cl)c(N)c(NC23CC4CC(CC(C4)C2)C3)n1",
    "TGI": "4.21 µM"
  },
  {
    "compound": "O=C(c1ccccc1)c1cc(Cl)ccc1OCCCCN1CCN(CCCCOc2ccc(Cl)cc2C(=O)c2ccccc2)CC1",
    "TGI": "20.5 µM"
  },
  {
    "compound": "COCCOc1cc(F)c2c(Nc3ccc(NC(=O)Cn4cc(C(C)C)nn4)cc3)ncnc2c1",
    "TGI": "> 100 µM"
  },
  {
    "compound": "Cc1nc(N)sc1-c1ccnc(Nc2ccc(N3CCOCC3)cc2)n1",
    "TGI": "> 100 µM"
  },
  {
    "compound": "CNCCNc1c2c(c(NCCNC)c3c(CN(C)C)c[nH]c13)C(=O)c1ccccc1C2=O",
    "TGI": "17.5 µM"
  },
  {
    "compound": "O=C(Nc1nc2ncn(CCI)c2c(=O)[nH]1)c1ccccc1",
    "TGI": "> 100 µM"
  },
  {
    "compound": "O=S(=O)(Nc1cc(F)cc(Cl)c1)c1ccc(-c2cnc(C3CC3)o2)cc1",
    "TGI": "21.9 µM"
  },
  {
    "compound": "C[C@H]1c2cccc(O)c2C(O)=C2C(=O)[C@]3(O)C(O)=C(C(N)=O)C(=O)[C@@H](N(C)C)[C@@H]3[C@@H](O)[C@@H]21",
    "TGI": "42.1 µM"
  },
  {
    "compound": "COc1cc(C(=O)c2cc(C)c3[nH]c4ccc(Cl)cc4c3c2C)cc(OC)c1OC",
    "TGI": "27.2 µM"
  },
  {
    "compound": "O/N=C1/COC(C(F)(F)F)(C(F)(F)F)C1",
    "TGI": "> 100 µM"
  },
  {
    "compound": "CC(C)=C[C@@H]1C[C@H](C)[C@H]2CC[C@H](C)C3=C2[C@](O)(OC3=O)[C@]1(C)O",
    "TGI": "> 100 µM"
  },
  {
    "compound": "CCOC(CCNCC(OCC)OCC)OCC",
    "TGI": "> 10 µM"
  },
  {
    "compound": "O=C(CC(=O)Nc1cccc(C(=O)O)c1)Nc1cccc(C(=O)O)c1",
    "TGI": "> 100 µM"
  },
  {
    "compound": "COc1ncnc(C2CC2)c1-c1ncc2cnn(Cc3ccc(-c4nc(C(F)(F)F)cn4C(C)C)cc3)c2n1",
    "TGI": "75.6 µM"
  },
  {
    "compound": "COc1ccc(C2S/C(=C\\c3ccccc3O)C(=O)N2NC(=O)Cc2ccccc2)cc1 (stereo not drawn)",
    "TGI": "> 100 µM"
  },
  {
    "compound": "COC(=O)/C=C/c1cc(O)c2oc(-c3ccc(O)c(O)c3)c(C(=O)OC)c2c1",
    "TGI": "12 µM"
  },
  {
    "compound": "O=c1nc2occc2cn1C1CC(O)C(CO)O1 (stereo not drawn)",
    "TGI": "> 100 µM"
  },
  {
    "compound": "CN1C(=O)N/C(=C\\c2ccc(S(=O)(=O)NN)cc2)C1=O",
    "TGI": "> 100 µM"
  },
  {
    "compound": "CCN1CCN(c2ccc(Nc3cc(N(C)C(=O)Nc4c(Cl)c(OC)cc(OC)c4Cl)ncn3)cc2)CC1",
    "TGI": "12.1 µM"
  },
  {
    "compound": "NC(Cc1cccc([N+](=O)[O-])c1)C(=O)O (stereo not drawn)",
    "TGI": "> 100 µM"
  },
  {
    "compound": "COC(C)(C)C1=CCC(C)CC1 (stereo not drawn)",
    "TGI": "> 100 µM"
  },
  {
    "compound": "O=c1c2ccccc2[se]n1-c1cccnc1",
    "TGI": "> 100 µM"
  },
  {
    "compound": "COc1cc(C2c3cc4c(cc3OC(N3CCCC3)C2C)OCO4)cc(OC)c1O (stereo not drawn)",
    "TGI": "> 100 µM"
  },
  {
    "compound": "Cc1ccccc1N1C(=O)/C(=C/c2ccc(N(CCC#N)CCC#N)cc2)N=C1c1cc([N+](=O)[O-])ccc1Cl",
    "TGI": "> 100 µM"
  },
  {
    "compound": "CC(=O)OC1Oc2ccccc2-c2oc(=O)c(-c3cc(=O)oc4cc(O)ccc34)cc21 (stereo not drawn)",
    "TGI": "> 100 µM"
  },
  {
    "compound": "C=C(C)C(CC=C(C)C)CC12CC(CC=C(C)C)C(C)(C)C(CC=C(C)C)(C(=O)C(Cc3ccc(O)c(O)c3)=C1O)C2=O (stereo not drawn)",
    "TGI": "> 100 µM"
  },
  {
    "compound": "COCCOCc1nc(C#N)c(N)o1",
    "TGI": "> 100 µM"
  },
  {
    "compound": "Cc1ccc(SC(C)/C=C/NNC2=NC(c3ccccc3)C(c3ccccc3)=NN2)cc1 (stereo not drawn)",
    "TGI": "> 100 µM"
  },
  {
    "compound": "COc1ccc(/C=C(/C(=O)c2ccc(Cl)cc2)N2C=CC=CC2=C(C#N)C#N)cc1OC",
    "TGI": "20.5 µM"
  },
  {
    "compound": "COc1ccc2c(c1)CCC1C2CC[C@@]2(C)C1CC1=CC(COC(C)=O)C3C(=O)c4ccccc4C(=O)C3C12 (stereo partly drawn)",
    "TGI": "> 100 µM"
  }
]
